Where a name gives a salt, the structure may show the parent alone.
// rat EP4 receptor (Rattus norvegicus) pKi records
The scale used: pKi is minus the common logarithm of the concentration in molar units.

> print(dat)
                                   molecule  assay.result
1  O=C(O)c1ccc(CCn2c(CN3CCc4ccc(C(F)(F)F)cc43)c(Cl)cc(Cl)c2=O)cc1 [Example 153]          8.31
2  Cc1cc(C)c(=O)n(CCc2ccc(-c3n[nH]c(=O)o3)cc2)c1CN1CCC[C@@H]1CC(C)C [Example 345]          8.66

IN: Which pKi is listed for CCC[C@H]1CCCN1Cc1c(Cl)cc(Cl)c(=O)n1CCc1ccc(C(=O)O)cc1 [Example 17, trifluoroacetate] ?
OUT: 7.96

IN: How about this molecule: CCOc1ccc2c(c1)N(Cc1c(Cl)cc(Cl)c(=O)n1CCc1ccc(C(=O)O)cc1)CC2 [Example 10]
OUT: 8.49
